# system-name: T1, factor H binding protein (fHbp) variant 3.28, recombinant (Neisseria meningitidis M1239, fHbp v3.28, UniProt Q19KF7, strain)
# T1 construct: also called fHbp v3.28; fHbp v3; source: E. coli BL21(DE3), purified (Ni-NTA, SEC when necessary)
# method-summary: SPR
# assay-context: both partners purified
Reported Kd values for the following binders.
The reply should be a number in pM, with the unit left off.

Some solved cases for reference:
binder: human anti-fHbp mAb 1E10 (antibody, V domains shown, IgG1; source: Expi293, transient transfection, purified (protein G Sepharose)) VH: QVQLVESGGDLVKPGGSLRLSCVASGFTFSSYTMNWVRQAPGKGLEWVSSITSSSSFTYYADSVKGRFIISRDNAKNSLSLQMNNLRVEDTATYYCARRKDSSDYDWYYYYGMDVWGLGTTVTVSS VL: QSVVTQPPSVSAAPGQKVTISCSGSSSNIGDNYMSWYQQIPGTAPKLLIFDNDQRPSGIPDRFSASKSGTSATLDITGFQTGDEADYYCGTWDSGLSAPVFGGGTKLTVL
Kd, pM: 1270
--
binder: human anti-fHbp mAb 3G7 (antibody, V domains shown, IgG1; source: Expi293, transient transfection, purified (protein G Sepharose)) VH: EVQLLQSGGGLVKPGGSLRLSCAASGFPFSSYYMSWIRQAPGKGLEWVSDINNSGNVKEYADFVKGRLTISRDNVKNSMYLHMNSLRVEDTAVYYCARNRGRFDVWGQGTLVTVSA VL: EIVLTQSPGTLSLSPGETATLSCRASQMISSPFLAWYQQRRGQAPRLLIYGASTRATDTPDRFRGSGSGTDFILTISRLEPEDFAVYYCQYYDDSPFTFGQGTKLEIK
Kd, pM: 680
--
binder: human anti-fHbp mAb 2C8 (antibody, V domains shown, IgG1; source: Expi293, transient transfection, purified (protein G Sepharose)) VH: QVQLVQSGAEVKKPGSSVKVSCKASGGTVINYPISWVRQVPGQGLEWMGRLVPLFGTPNYGQKFQGRITITADKSTSAAYMELIGLKSEDTAVYYCARGDTAMAPFDYWGHGTLVTVSS VL: QLVLTQPPSVSVAPGKTATITCGGNNVGGKTVHWYQQKPGQAPVLVMSYDSDRPSGIPERFSGSNSGNTATLTISRVEAEDEADYYCQVWHGNDDHWVFGGGTKLTVL
Kd, pM: 460
--
binder: human anti-fHbp mAb 4B3 (IgG1) (antibody, V domains shown, IgG1; source: Expi293, transient transfection, purified (protein G Sepharose)) VH: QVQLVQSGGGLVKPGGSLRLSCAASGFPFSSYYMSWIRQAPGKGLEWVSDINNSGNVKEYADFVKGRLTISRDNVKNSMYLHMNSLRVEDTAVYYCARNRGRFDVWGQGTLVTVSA VL: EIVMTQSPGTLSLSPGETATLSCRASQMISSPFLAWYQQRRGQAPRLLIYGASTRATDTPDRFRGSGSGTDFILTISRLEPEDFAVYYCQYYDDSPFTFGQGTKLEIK
Kd, pM: 633

Then this binder:
## Task Supply recorded Kd for human anti-fHbp mAb 2G1 (antibody, V domains shown, IgG1; source: Expi293, transient transfection, purified (protein G Sepharose)) VH: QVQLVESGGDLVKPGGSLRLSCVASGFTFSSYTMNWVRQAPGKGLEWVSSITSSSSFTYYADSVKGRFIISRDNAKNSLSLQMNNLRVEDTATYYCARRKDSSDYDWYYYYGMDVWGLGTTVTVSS VL: QSVLTQPPSVSAAPGQKVTISCSGSSSNIGDNYMSWYQQIPGTAPKLLIFDNDQRPSGIPDRFSASKSGTSATLDITGFQTGDEADYYCGTWDSGLSAPVFGGGTKLTVL here.
## Result 1750
